- EXPERIMENTAL SYSTEM: T1, integrin αVβ3 (UniProt P06756 31-992; P05106 27-718)
- T1 construct: Coated on the ELISA plate
- T1 sequence (P06756 31-992, chain 1 of 2): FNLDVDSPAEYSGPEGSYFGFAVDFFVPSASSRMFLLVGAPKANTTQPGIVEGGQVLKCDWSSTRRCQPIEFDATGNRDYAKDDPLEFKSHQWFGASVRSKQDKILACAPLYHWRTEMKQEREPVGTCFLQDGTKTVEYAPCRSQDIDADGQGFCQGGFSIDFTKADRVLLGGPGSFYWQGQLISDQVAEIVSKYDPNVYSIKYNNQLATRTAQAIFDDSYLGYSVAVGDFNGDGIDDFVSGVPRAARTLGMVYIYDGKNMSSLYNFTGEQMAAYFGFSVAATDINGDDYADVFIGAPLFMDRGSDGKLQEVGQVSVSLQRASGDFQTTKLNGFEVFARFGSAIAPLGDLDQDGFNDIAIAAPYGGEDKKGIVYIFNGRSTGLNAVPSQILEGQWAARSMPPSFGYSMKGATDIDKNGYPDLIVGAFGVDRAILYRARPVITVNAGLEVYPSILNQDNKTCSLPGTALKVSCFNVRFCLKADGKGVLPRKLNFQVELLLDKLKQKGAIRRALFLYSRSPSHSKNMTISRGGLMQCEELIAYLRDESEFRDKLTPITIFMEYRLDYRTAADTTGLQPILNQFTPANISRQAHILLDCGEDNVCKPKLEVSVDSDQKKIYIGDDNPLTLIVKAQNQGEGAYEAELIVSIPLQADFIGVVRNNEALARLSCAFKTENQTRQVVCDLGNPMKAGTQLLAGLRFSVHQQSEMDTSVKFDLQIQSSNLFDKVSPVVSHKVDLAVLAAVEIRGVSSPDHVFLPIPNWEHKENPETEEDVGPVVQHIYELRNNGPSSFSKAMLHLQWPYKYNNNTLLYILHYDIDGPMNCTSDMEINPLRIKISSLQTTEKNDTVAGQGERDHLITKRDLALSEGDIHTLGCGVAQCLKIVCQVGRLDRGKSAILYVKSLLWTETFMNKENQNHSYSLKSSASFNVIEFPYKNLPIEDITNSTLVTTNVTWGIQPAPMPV
- T1 sequence (P05106 27-718, chain 2 of 2): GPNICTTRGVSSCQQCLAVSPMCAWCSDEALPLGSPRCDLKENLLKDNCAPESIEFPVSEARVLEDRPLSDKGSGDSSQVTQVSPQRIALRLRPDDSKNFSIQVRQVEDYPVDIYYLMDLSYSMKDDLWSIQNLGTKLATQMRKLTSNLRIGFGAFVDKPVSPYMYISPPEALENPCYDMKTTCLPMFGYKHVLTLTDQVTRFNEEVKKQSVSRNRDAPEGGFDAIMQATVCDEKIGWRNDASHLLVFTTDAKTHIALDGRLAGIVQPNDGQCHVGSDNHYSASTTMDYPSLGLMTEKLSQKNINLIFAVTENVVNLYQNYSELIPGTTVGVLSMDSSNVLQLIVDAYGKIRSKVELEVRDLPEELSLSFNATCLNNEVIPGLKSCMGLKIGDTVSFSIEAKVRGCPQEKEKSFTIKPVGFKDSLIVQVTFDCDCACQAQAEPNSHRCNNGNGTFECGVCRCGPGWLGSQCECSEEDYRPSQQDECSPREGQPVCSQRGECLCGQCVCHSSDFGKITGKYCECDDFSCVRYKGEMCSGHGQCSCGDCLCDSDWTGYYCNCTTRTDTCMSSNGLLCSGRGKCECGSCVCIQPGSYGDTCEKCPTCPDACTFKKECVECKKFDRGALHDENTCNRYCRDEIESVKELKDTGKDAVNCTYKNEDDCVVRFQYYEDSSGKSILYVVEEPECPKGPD
- METHOD NOTES: phage ELISA, integrin coated, anti-M13-HRP
Please respond with reported signal for every item in the list.
Give bare numbers, in OD.

INSERT INTO results (binder, value_kind, observed_measurement) VALUES
  ('M13 phage pKK97 displaying MICA α3 domain with loop 5.2 in loop 1 (designed binder, not shown: large carriers) TVPPMVNVTRGDTFTQSVTCRASGFYPWNITLSWRQDGVSLSHDTQQWGDVLPDGNGTYQTWVATRICQGEEQRFTCYMEHSGNHSTHPVPSGK', 'signal', 1.55);

// below: signal requested for another binder
// sample M13 phage pKK92 displaying MICA α3 domain with loop 3.1 in loop 1 (designed binder, not shown: large carriers) TVPPMVNVTSRGDHPRTQVTCRASGFYPWNITLSWRQDGVSLSHDTQQWGDVLPDGNGTYQTWVATRICQGEEQRFTCYMEHSGNHSTHPVPSGK , its signal was 0.858
